All values here come from patent US20250027068.

- SUBJECT OF TEST: pooled human IgG (human IgG1,2,3 and 4)
MEASURED PROPERTY: Enzyme activity endpoint: Fc (ng/µL)
Express your answer in ng/µL, writing the number without its unit.

Exercise: Quote Enzyme activity endpoint: Fc reported for PRT-648 (protein) MQITSVWTKGVTPLTPEQFRYNNEDVIHAPYLAHQGWYDITKAFDGKDNLLCGAATAGNMLHWWFDQNKTEIEAYLSKHPEKQKIIFNNQYLFDLKAAIDTKDSQTNSQLFNYFRDKAFGNLSARQLGVMPDLVLDMFINGYYLNVNKTQSTDVNRPYQKPDKRGGIFDAVFTRGDQTTLLTARHDLKNKGLNDISTIIKQELTEGRALALSHTYANVSISHVINLWGADFNAEGNLEAIYVTDSDANASIGMKKYFVGINAHGHVAISAKKIEGENIGAQVLGLFTLSSGKDIWQKLSLEHHHHHH please.
Key: 206
